Tested on: NCI-H23 lung
Test: NCI-60 one-dose screen, 48 h (100 = growth as untreated, 0 = no growth, -100 = all killed)
Details: 10 µM unless noted
About 83,000 compounds went through this panel and 20% of them were active in at least one assay; those are over-represented in the sample as a whole. Active and inactive are the calls of the source. The calls were made as follows: active = growth percent below 10; inactive = the rest.
The following molecules are listed with their measured growth values.

Below, each entry is followed by its recorded growth result.
Qu. Quote growth with test system NCI-H23 lung for CC1Cc2ccc(OCCN(C)C)cc2C1=O (configuration not stated)
Ans. 103% (inactive)

Qu. // fetch growth for "Oc1c(CNCCNCc2cc(Cl)cc(Cc3ccccc3)c2O)cc(Cl)cc1Cc1ccccc1" ; system: NCI-H23 lung
Ans. 17.4% (inactive)

Qu. Quote growth with test system NCI-H23 lung for "COc1cc2c(O)n(CCCN3CCOCC3)c3c4cnc5cccc(c(=O)c3c2cc1OC)c54"
Ans. 33.3% (inactive)

Qu. Write down the reported growth (system: NCI-H23 lung) of "COc1ccc(-c2c(C)nn3c(NCCN4CCOCC4)cc(C)nc23)cc1OC"
Ans. 102% (inactive)

Qu. Report value: growth, system: NCI-H23 lung, molecule: CCc1ccc(-c2ccc(COc3ccc(CC4SC(=O)NC4=O)cc3)cc2)cc1 (configuration not stated)
Ans. 52.2% (inactive)

More entries:
Qu. Print NCI-H23 lung growth for "C1=C[C@H]2O[C@@H]1c1ccc3[nH]ccc3c12" .
Ans. 96% (inactive)

Qu. Enter measured growth, system NCI-H23 lung, for the molecule shown: "Cc1cc(N2CCCCCC2)nc(N2CCN(CC(=O)Nc3ccc4c(ccn4Cc4ccccc4)c3)CC2)n1"
Ans. 48.3% (inactive)

Qu. Find the measured growth of "O=C(OCc1ccc2c(Cl)cc(Cl)c(O)c2n1)N1CCNCC1" with NCI-H23 lung as test system.
Ans. 47.1% (inactive)

Qu. Consider the molecule "O=C(N/N=C/c1ccc([N+](=O)[O-])cc1)c1ccc(Br)o1" tested on NCI-H23 lung; state its growth.
Ans. 95.5% (inactive)

Qu. Give NCI-H23 lung growth for the following molecule: "[2H]C1([2H])CCN(C(=O)C2CC2)c2cc(NS(=O)(=O)c3ccc(-c4cccc(C(N)=O)c4)cc3)ccc21"
Ans. 44% (inactive)

Qu. Specify the recorded growth for "CCn1cc(-c2cc(-c3ccc(Cl)cc3)nc(N)n2)c(-c2ccc(Br)cc2)n1" , system: NCI-H23 lung.
Ans. 79.4% (inactive)

Qu. Retrieve growth on NCI-H23 lung; query "COc1ccc(C(=O)CCC(=O)O)cc1"
Ans. 89.4% (inactive)

Qu. Output reported growth of the molecule "C[C@]12CCc3nc(Nc4ccccc4)sc3C1=CC[C@@H]1[C@@H]2CC[C@]2(C)/C(=N/NC(N)=S)CC[C@@H]12" on NCI-H23 lung.
Ans. 59.7% (inactive)

Qu. # lookup: NCI-H23 lung growth, key = "Cc1cc2c(C(C)C)c(O)c(O)c(C=NCc3ccoc3)c2c(O)c1-c1c(C)cc2c(C(C)C)c(O)c(O)c(C=NCc3ccco3)c2c1O"
Ans. 23.5% (inactive)

Qu. System NCI-H23 lung. Read-out growth. Item "O=C(O)c1cc([N+](=O)[O-])ccc1Br" . Report value.
Ans. 105% (inactive)

Qu. For NCI-H23 lung, give the measured growth of the entry "O=C(Nc1cccc2cccnc12)c1cc(C(=O)c2ccc(Cl)cc2)n2ccc(-c3ccncc3)cc12"
Ans. 102% (inactive)

Qu. GET growth | system: NCI-H23 lung | item: "CC(C)[C@H]1CCC2=C3CC[C@]45OC(=O)[C@@]6(CCC(C)(C)C[C@H]64)CC[C@@]5(C)[C@]3(C)CC[C@@]21C"
Ans. 54.4% [100 µM] (inactive)
